Below, each entry is listed with its recorded IC50.
target: Sentrin-specific protease 8 (Homo sapiens, UniProt Q96LD8); type: functional;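 also: luminescence read-out of SENP8 inhibition, dose-response confirmation following an ultra-high-throughput screen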
Sequence (Q96LD8 whole entry): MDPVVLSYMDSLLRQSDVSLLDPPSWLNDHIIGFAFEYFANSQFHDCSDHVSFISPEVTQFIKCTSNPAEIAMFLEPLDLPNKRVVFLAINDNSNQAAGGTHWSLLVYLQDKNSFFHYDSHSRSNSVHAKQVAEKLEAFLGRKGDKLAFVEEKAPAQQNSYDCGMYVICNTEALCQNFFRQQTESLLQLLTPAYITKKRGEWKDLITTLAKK
Activity calls are given as the source filed them.

compound: Cc1ccc2nc(-c3cccnc3SCC(=O)N3c4ccccc4CC3C)[nH]c2c1 (centres undefined)
IC50: 1.56 µM (active)
--
compound: Fc1ccccc1COc1ccc(C(=S)N2CCCC2)cc1
IC50: 3.21 µM (active)
--
compound: O=C(Nc1ccc2c(c1)CCC2)c1ccc(Br)s1
IC50: 4.31 µM (active)
--
compound: O=C(COC(=O)c1ccc([N+](=O)[O-])s1)Nc1ccc(F)cc1
IC50: 4.05 µM (active)

// data source = ChEMBL document CHEMBL1201862
